Hello, the source for this data is patent US20240228494A1, in case you need it.

Molecular target: human recombinant GPR65 (Homo sapiens, UniProt Q8IYL9)
Sequence (Q8IYL9 whole entry): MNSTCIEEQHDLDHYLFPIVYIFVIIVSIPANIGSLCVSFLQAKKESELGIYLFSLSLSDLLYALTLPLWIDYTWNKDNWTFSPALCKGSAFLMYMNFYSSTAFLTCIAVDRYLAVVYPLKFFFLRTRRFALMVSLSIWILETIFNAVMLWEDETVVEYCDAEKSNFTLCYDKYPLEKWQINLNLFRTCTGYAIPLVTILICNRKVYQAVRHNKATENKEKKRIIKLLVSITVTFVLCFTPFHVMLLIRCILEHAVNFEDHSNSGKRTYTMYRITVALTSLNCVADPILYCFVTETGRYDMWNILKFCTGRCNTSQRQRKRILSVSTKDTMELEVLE
Experiment: Human GPR65 cAMP HTRF antagonist assay
Format: cell-based
Conditions: 1321N1-hrGPR65 cells, assay pH 7.2, suppression of cAMP rise; read-out: hGPR65 IC50
pIC50: −log10 of the molar value.
Item-by-item account of pIC50
Measurement Label: pIC50

{"columns": ["Compound", "Measurement Label", "Reported"],
 "data": [
  ["N=C(Nc1cc(Cl)c(Cl)cc1F)N1[C@H]2CC[C@@H]1c1ccnc(F)c1C2", "pIC50", "< 5.30"],
  ["O=C(C(O)c1ccc(Cl)c(Cl)c1)N1[C@H]2CC[C@@H]1c1ccnc(F)c1C2 (single isomer, unassigned)", "pIC50", "< 5.30"],
  ["O=C(Cc1ccc(Cl)c(Cl)c1)N1[C@H]2CC[C@@H]1c1ccnc(F)c1C2", "pIC50", "5.30 to 6.30"]
]}

----------
Item-by-item account of pIC50
Molecular target: human recombinant GPR65 (Homo sapiens, UniProt Q8IYL9)
Experiment: Human GPR65 cAMP HTRF antagonist assay
Type: cell-based
pIC50: −log10 of the molar value.

{"columns": ["Compound", "pIC50"],
 "data": [
  ["Fc1cc(C(F)(F)F)c(Br)cc1NC(=S)N1[C@H]2CC[C@@H]1c1ccnc(F)c1C2", "> 6.30"],
  ["O=c1cc2c(c[nH]1)[C@H]1CC[C@@H](C2)N1C(=S)Nc1cc(Cl)c(C(F)(F)F)cc1F", "> 6.30"],
  ["Fc1cc(Cl)c(Cl)cc1CN1[C@H]2CC[C@@H]1c1ccnc(F)c1C2", "5.30 to 6.30"],
  ["O=C(Oc1ccc(Cl)c(Cl)c1)N1C2CCC1c1cncnc1C2 (racemic)", "5.30 to 6.30"]
]}
